Data provenance: ChEMBL document CHEMBL1147839

compounds and their reported inhibition
organism: Homo sapiens; assay: Inhibition of human telomerase at 2 uM after 2 hrs by TRAP assay
QUANTITY_MEASURED: inhibition

{"columns": ["MOLECULE", "REPORTED_RESULT"],
 "data": [
  ["CN(C)CCCNc1cc2c3c(cc(NCCCN(C)C)c4c5ccc6c7c(ccc(c1c34)c75)C(=O)N(CCCN(C)C)C6=O)C(=O)N(CCCN(C)C)C2=O", "12%"],
  ["CN(C)CCCNc1cc2c3c(ccc4c5c(Br)cc6c7c(ccc(c1c34)c75)C(=O)N(CCCN(C)C)C6=O)C(=O)N(CCCN(C)C)C2=O", "18%"],
  ["CN(C)CCCNc1cc2c3c(ccc4c5ccc6c7c(ccc(c1c34)c75)C(=O)N(CCCN(C)C)C6=O)C(=O)N(CCCN(C)C)C2=O", "24%"],
  ["CN(C)CCCNc1cc2c3c(ccc4c5c(NCCCN(C)C)cc6c7c(ccc(c1c34)c75)C(=O)N(CCCN(C)C)C6=O)C(=O)N(CCCN(C)C)C2=O", "8%"]
]}

---

organism: Homo sapiens; assay: Inhibition of human telomerase at 5 uM after 2 hrs by TRAP assay

{"columns": ["MOLECULE", "inhibition [%]"],
 "data": [
  ["CN(C)CCCNc1cc2c3c(ccc4c5c(Br)cc6c7c(ccc(c1c34)c75)C(=O)N(CCCN(C)C)C6=O)C(=O)N(CCCN(C)C)C2=O", 49],
  ["CN(C)CCCNc1cc2c3c(ccc4c5ccc6c7c(ccc(c1c34)c75)C(=O)N(CCCN(C)C)C6=O)C(=O)N(CCCN(C)C)C2=O", 39],
  ["CN(C)CCCNc1cc2c3c(ccc4c5c(NCCCN(C)C)cc6c7c(ccc(c1c34)c75)C(=O)N(CCCN(C)C)C6=O)C(=O)N(CCCN(C)C)C2=O", 41],
  ["CN(C)CCCNc1cc2c3c(cc(NCCCN(C)C)c4c5ccc6c7c(ccc(c1c34)c75)C(=O)N(CCCN(C)C)C6=O)C(=O)N(CCCN(C)C)C2=O", 47]
]}

---

species on record: Homo sapiens; experiment: Inhibition of human telomerase at 20 uM after 2 hrs by TRAP assay

{"columns": ["MOLECULE", "UNITS_OF_MEASURE", "inhibition"],
 "data": [
  ["CN(C)CCCNc1cc2c3c(cc(NCCCN(C)C)c4c5ccc6c7c(ccc(c1c34)c75)C(=O)N(CCCN(C)C)C6=O)C(=O)N(CCCN(C)C)C2=O", "%", 59],
  ["CN(C)CCCNc1cc2c3c(ccc4c5c(Br)cc6c7c(ccc(c1c34)c75)C(=O)N(CCCN(C)C)C6=O)C(=O)N(CCCN(C)C)C2=O", "%", 59],
  ["CN(C)CCCNc1cc2c3c(ccc4c5c(NCCCN(C)C)cc6c7c(ccc(c1c34)c75)C(=O)N(CCCN(C)C)C6=O)C(=O)N(CCCN(C)C)C2=O", "%", 54],
  ["CN(C)CCCNc1cc2c3c(ccc4c5ccc6c7c(ccc(c1c34)c75)C(=O)N(CCCN(C)C)C6=O)C(=O)N(CCCN(C)C)C2=O", "%", 59]
]}
